System: NCI-H460 lung
Assay: NCI-60 one-dose screen, 48 h (100 = growth as untreated, 0 = no growth, -100 = all killed)
Conditions: 10 µM unless noted
Description: Growth inhibition of the NCI-H460 human Non-Small Cell Lung tumor cell line is measured as a screen for anti-cancer activity. Cells are grown in 96 well plates and exposed to the test compound for 48 hours. Compounds are tested at a single concentration, which is 10^-5 M for most compounds. The reported endpoint is percent growth (GI% or GIPRCNT), where numbers from 0 - 100% represent growth inhibition, and numbers from -100% - 0 represent cell death. […]
The panel holds about 83,000 compounds, 20% with a hit somewhere; the sample as a whole holds those more often.
OBSERVABLE: growth (%)
Entry rule: numbers only, all in %.

Consider the worked cases shown below.
CPD SMILES	RECORDED VALUE
O=C(N/N=C/c1ccco1)c1[nH]c2ccc(Br)cc2c1-c1ccccc1	2.19
CCOC(=O)c1csc(NC(=O)CSc2nc3sc4c(c3c(=O)n2-c2ccc(Cl)cc2)CCCC4)n1	100
COc1ccc(-c2nc3ccc(-c4nnc(SCC(=O)Nc5ccc(C(=O)/C=C/c6ccc(Cl)cc6)cc5)o4)cc3[nH]2)cc1OC	103
Cc1ccc2c(n1)C(=O)C(Cl)=C(Nc1cccc(C(C)C)c1)C2=O	78.8

Now consider the entry below.
For the compound COc1ccc(-c2nn3c(-c4ccccc4F)nnc3s2)cc1 , what growth is on record? 30

====

System: A549/ATCC NSCLC
Assay: NCI-60 one-dose screen, 48 h (100 = growth as untreated, 0 = no growth, -100 = all killed)
Settings: 10 µM unless noted
The panel holds about 83,000 compounds, 20% with a hit somewhere; the sample as a whole holds those more often.
Using growth as the sorting value, the categories are bucket 1 (below 30%), bucket 2 (30% to below 70%), bucket 3 (70% or more)

COMPOUND	GROUP
c1ccc(CNc2ncnc3ccc(-c4cnc5[nH]ncc5c4)cc23)cc1	bucket 2

Into which category would you place COc1ccccc1C(=O)CSc1nc(Nc2ccc(S(N)(=O)=O)cc2)c2ccccc2n1 ? bucket 3

Proceed to NC(=O)c1c(NC(=O)c2ccc(C3CCCCC3)cc2)sc2c1CCC(=O)C2 bucket 1

Proceed to Clc1ccc2oc3c(NCCCN4CCOCC4)c4ccccc4nc3c2c1 bucket 1

Proceed to COc1ccc(C(=O)c2cc(C(=O)/C=C/c3c(Cl)cccc3Cl)c3cc(C)ccn23)cc1 bucket 3

Proceed to Clc1ccc2c(NCCCn3ccnc3)c3oc4ccc(Cl)cc4c3nc2c1 bucket 3

Proceed to COc1cc2cc(Oc3ccc(NC(=O)c4cccc(C(F)(F)F)c4)cc3)c(C)nc2cc1OCCN1CCCCC1 bucket 1

Proceed to COc1cc2nc(-c3ccc(C(F)(F)F)cc3)cc(OCCCNCC3CCCO3)c2cc1OC (configuration not stated) bucket 2

Proceed to CS(=O)(=O)c1ccc(-c2nc3ccccn3c2/C=N/Nc2nc(-c3ccc(Br)cc3)cs2)cc1 bucket 3

====

Tested on: HCT-116 colon
Test: NCI-60 one-dose screen, 48 h (100 = growth as untreated, 0 = no growth, -100 = all killed)
Settings: 10 µM unless noted
About 83,000 compounds went through this panel and 20% of them were active in at least one assay; those are over-represented in the sample as a whole.
Threshold check on growth: at or above 70% gives YES, strictly below gives NO.

COMPOUND	TARGET ENTITY	GROUP
CCCCN1C(=O)/C(=c2\sc3n(c2=O)C2C(NN=3)N(CC)C(=O)N2CC)c2cc(Cl)ccc21 (stereo not given)	HCT-116 colon	NO
CN(C)CCCOc1c2ccc(Cl)cc2nc2c1oc1ccccc12	HCT-116 colon	NO
C#Cc1nc(C2=C(C)C(=N\O)/C(=N/O)C2)cs1	HCT-116 colon	YES
O=C(O)CCCCCN1C(=O)/C(=C/c2ccc(O)c(O)c2)SC1=S	HCT-116 colon	YES

Confirm if growth reported for the compound O=C(N/N=C/c1ccc(Br)s1)c1[nH]c2ccc(Br)cc2c1-c1ccccc1 is 70% or above. NO

Proceed to COc1ccc(COc2ccc(/C=C3/C(=O)Nc4cc(Cl)ccc43)cc2)cc1 YES

Proceed to COc1ccc(-c2csc(N/N=C/c3c(-c4ccc(S(C)(=O)=O)cc4)nc4ccccn34)n2)cc1 YES
